Measured nuclei count by item
assay: endothelial E-selectin expression blockers – imaging, HUVEC, immunofluorescence, MLSMR starter and 10KST1 sets, primary screen (AID 487); settings: HUVEC TNFalpha-induced E-selectin immunofluorescence imaging, at 2 µM; measured here: cell number, toxicity;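 further: 100% = median nuclei count of all wells on the same plate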
experimental-endpoint: nuclei count (%)

[
  {
    "molecule": "Cc1cccc(NC(=O)c2cc3ccccc3o2)c1",
    "experimental-endpoint": "nuclei count",
    "units-text": "%",
    "number": 157
  },
  {
    "molecule": "CCC(=O)Nc1cc(Cl)ccc1N1CCN(C(=O)CC)CC1",
    "experimental-endpoint": "nuclei count",
    "units-text": "%",
    "number": 90.8
  },
  {
    "molecule": "Cn1c(=O)c2ccccc2n(Cc2ccccc2F)c1=O",
    "experimental-endpoint": "nuclei count",
    "units-text": "%",
    "number": 73.9
  },
  {
    "molecule": "O=C(Nc1cccc(NC(=O)c2ccco2)c1)c1ccc2c(c1)OCO2",
    "experimental-endpoint": "nuclei count",
    "units-text": "%",
    "number": 121
  },
  {
    "molecule": "CCn1c(SCC(=O)N2CCN(c3ccc(Cl)cc3)CC2)nc2ccccc2c1=O",
    "experimental-endpoint": "nuclei count",
    "units-text": "%",
    "number": 102
  },
  {
    "molecule": "Cc1ccc(S(=O)(=O)N2CCN(c3nc(C)nc4sc(C)c(C)c34)CC2)cc1",
    "experimental-endpoint": "nuclei count",
    "units-text": "%",
    "number": 108
  },
  {
    "molecule": "Cn1c(=O)c2c(nc(NCc3ccco3)n2C/C=C/c2ccccc2)n(C)c1=O",
    "experimental-endpoint": "nuclei count",
    "units-text": "%",
    "number": 118
  },
  {
    "molecule": "Cc1cc(C)n2nc(SCC(=O)N(C)c3ccccc3)nc2n1",
    "experimental-endpoint": "nuclei count",
    "units-text": "%",
    "number": 103
  },
  {
    "molecule": "Cc1cc(C)nc(N2CCC(C(=O)Nc3ccc4c(c3)CCC4)CC2)n1",
    "experimental-endpoint": "nuclei count",
    "units-text": "%",
    "number": 120
  },
  {
    "molecule": "O=C(NCc1ccccc1)C1CCN(S(=O)(=O)N2CCCCCC2)CC1",
    "experimental-endpoint": "nuclei count",
    "units-text": "%",
    "number": 112
  },
  {
    "molecule": "O=C(Nc1ccc(S(=O)(=O)NCCc2ccccc2)cc1)c1ccc(Br)o1",
    "experimental-endpoint": "nuclei count",
    "units-text": "%",
    "number": 88.5
  },
  {
    "molecule": "Cc1ccc2c(c1)c1c3n2CC(=C2C(=O)OC(C)(C)OC2=O)NC3CCC1 (stereo not drawn)",
    "experimental-endpoint": "nuclei count",
    "units-text": "%",
    "number": 139
  },
  {
    "molecule": "CCC(C(=O)Nc1ccccc1C(=O)N1CCCC1)N1C(=O)c2ccccc2C1=O (stereo not drawn)",
    "experimental-endpoint": "nuclei count",
    "units-text": "%",
    "number": 112
  },
  {
    "molecule": "CSc1ccccc1NC(=O)CN(Cc1ccccc1)S(C)(=O)=O",
    "experimental-endpoint": "nuclei count",
    "units-text": "%",
    "number": 103
  },
  {
    "molecule": "O=C(Cn1cccc1C(=O)c1ccccc1)NCCN1CCOCC1",
    "experimental-endpoint": "nuclei count",
    "units-text": "%",
    "number": 98.8
  },
  {
    "molecule": "Cn1c(=O)[nH]c(=O)c2c1nc(NCCCn1ccnc1)n2Cc1ccccc1",
    "experimental-endpoint": "nuclei count",
    "units-text": "%",
    "number": 119
  },
  {
    "molecule": "CC(c1ccco1)N(C(=O)COc1ccc(Cl)cc1Cl)c1ccccn1 (stereo not drawn)",
    "experimental-endpoint": "nuclei count",
    "units-text": "%",
    "number": 119
  },
  {
    "molecule": "Cc1ccc(C)c(N2CCN(Cc3nnnn3C3CCCCC3)CC2)c1",
    "experimental-endpoint": "nuclei count",
    "units-text": "%",
    "number": 112
  },
  {
    "molecule": "O=C(O)CCc1ccc(-c2ccc(F)cc2)n1CCC(=O)O",
    "experimental-endpoint": "nuclei count",
    "units-text": "%",
    "number": 120
  },
  {
    "molecule": "COc1ccc(S(=O)(=O)Nc2cccc(C)n2)c2ccccc12",
    "experimental-endpoint": "nuclei count",
    "units-text": "%",
    "number": 92.3
  },
  {
    "molecule": "Cc1ccc(Cn2c(SCC(N)=O)nc3c2c(=O)n(C)c(=O)n3C)cc1",
    "experimental-endpoint": "nuclei count",
    "units-text": "%",
    "number": 72.3
  },
  {
    "molecule": "Cc1ccc(CC2SC(=O)NC2=O)cc1Cl (stereo not drawn)",
    "experimental-endpoint": "nuclei count",
    "units-text": "%",
    "number": 119
  },
  {
    "molecule": "O=C(CN1C(=O)c2ccccc2C1=O)Nc1ccc(S(=O)(=O)NCC2CCCO2)cc1 (stereo not drawn)",
    "experimental-endpoint": "nuclei count",
    "units-text": "%",
    "number": 107
  }
]
